Numbers sourced from the supplement of paper PMC9732359.

# protocol.notes: protein stability index of a GFP-peptide fusion (yeast GPS) (PSI 1-4); higher = more stable; sorted into four equal gates, so the index is relative within each strain
# details: san1∆
metric: protein stability index
Numbers only.

Consider the worked cases shown below.
NLTIHFGGEKGKRIREN [FAS1]
3.05
PKAISNFLIKLSELSPG [YCS4]
2.08

Here are 3 sequences. What values of protein stability index were reported for them?
1. KDLETLYNKIWTEASSS [ECM29]
2. MIKESSTANPNIKLLNN [POP1]
3. NNNGNPGTTSTGNNNNI [GAL11]

1. 2.71
2. 2.83
3. 3.18

* * *

Please provide measured protein stability index for the entries that follow.
# protocol.notes: protein stability index of a GFP-peptide fusion (yeast GPS) (PSI 1-4); higher = more stable; sorted into four equal gates, so the index is relative within each strain
# details: san1∆
Give bare numbers.

Consider the worked cases shown below.
SINATALAFGYVKSLHK [SIN4]
3.1
SKTGIIAYSDSQSSNAN [SIN4]
2.68
ASDMSDEDIITIFKYLT [CDC53]
3.23
MAISKNLPILKNHFRKH [RPL13A]
2.87
PAAESKIFTPNLLQISA [SNF5]
2.09

Hello, please tell me recorded protein stability index for this one: ASELDESKDSIQDLIVK [SMC3]
3.18
